Measured values drawn from patent US20240109912A1 for this set.

System: RNA polymerase II Serine 5 phosphorylation (CDK7) in A549 cells
Parameter measured: log10 IC50 (log10 of the value in nM)
All values: log10 IC50 [nM].

Below, each entry is followed by its recorded log10 IC50 result.
Compound	log10 IC50
C=CC(=O)N1CCC(N2CC[C@H](c3cc(C)c4c(c3)Nc3ncnc(N5CCOCC5)c3CO4)C2)CC1	2.81
C=CC(=O)N1CC(N2CC(c3cc(C)c4c(c3)Nc3ncnc(N5CCS(=O)(=O)CC5)c3CO4)C2)C1	2.46

Below are some compounds; for each one, tell me its log10 IC50.
1. CC#CC(=O)N1CCOC([C@H]2C[C@@H](c3cc(C)c4c(c3)Nc3ncnc(N5CCS(=O)(=O)CC5)c3[C@@H](C)O4)C2)C1 (single isomer, unassigned) [compound 187]
2. C=CC(=O)N1CCC(N2CC(c3cc(C)c4c(c3)Nc3ncnc(N5CCS(=O)(=O)CC5)c3CO4)C2)C1 (stereo not shown)
3. C=CC(=O)N1CC(C2CCN(c3ccc4c(c3)Nc3ncnc(N5CCOCC5)c3CO4)CC2)C1

3.79
2.31
3.83

* * *

System: RNA polymerase II Serine 5 phosphorylation in A549 cells overexpressing CDK7 mutant (C312S)
Assay: Imaging-based cellular RNA PolII Ser5 phosphorylation assay in A549 cells overexpressing CDK7-mutant (C312S)
Type: cell-based, human
Details: Homo sapiens, A549, A549 cells overexpressing CDK7 mutant (C312S); read-out: CDK7_ A549 mutant hCDK7(pIC50) (converted)
Parameter measured: IC50

Below are some compounds; for each one, tell me its IC50.
1. C=CC(=O)N1CC(N2CCC(c3ccc4c(c3)Nc3ncnc(N5CCOCC5)c3CO4)CC2C)C1 (centres unmarked) [compound 34]
2. [2H]C([2H])([2H])C#CC(=O)N1CC[C@@H](N2CC(c3cc(C)c4c(c3)Nc3ncnc(N5CCS(=O)(=O)CC5)c3[C@@H](C)O4)C2)C1 (single isomer, unassigned) [compound 165]
3. Cc1cc(C2CCN(C3CN(C(=O)C#CCCN4CCOCC4)C3)CC2)cc2c1O[C@H](C)c1c(ncnc1N1CCS(=O)(=O)CC1)N2 [compound 175]
4. CC#CC(=O)N1CC(OC2CCN(c3cc(C)c4c(c3)Nc3ncnc(N5CCS(=O)(=O)CC5)c3[C@@H](C)O4)CC2)C1 [compound 143]
5. C=CC(=O)N1CC(N2CCC(c3cc(C)c4c(c3)Nc3ncnc(N5CCC(S(C)(=O)=O)CC5)c3CO4)CC2)C1 [compound 70]

> 10 µM
> 10 µM
~10 µM
> 10 µM
> 10 µM

* * *

Target: CDK7/cyclinH/MAT1 trimeric complex (Homo sapiens (Human), UniProt P50613)
Sequence (P50613 whole entry): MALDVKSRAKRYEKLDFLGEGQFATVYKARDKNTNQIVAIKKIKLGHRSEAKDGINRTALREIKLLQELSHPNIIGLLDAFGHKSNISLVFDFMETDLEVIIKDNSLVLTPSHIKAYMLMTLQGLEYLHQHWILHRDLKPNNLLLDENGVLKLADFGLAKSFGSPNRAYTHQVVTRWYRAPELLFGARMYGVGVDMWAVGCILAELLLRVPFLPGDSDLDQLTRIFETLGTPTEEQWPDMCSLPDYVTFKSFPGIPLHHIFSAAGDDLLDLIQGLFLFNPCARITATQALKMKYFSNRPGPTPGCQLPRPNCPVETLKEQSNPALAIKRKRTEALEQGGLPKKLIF
Sequence (P51946 whole entry partner): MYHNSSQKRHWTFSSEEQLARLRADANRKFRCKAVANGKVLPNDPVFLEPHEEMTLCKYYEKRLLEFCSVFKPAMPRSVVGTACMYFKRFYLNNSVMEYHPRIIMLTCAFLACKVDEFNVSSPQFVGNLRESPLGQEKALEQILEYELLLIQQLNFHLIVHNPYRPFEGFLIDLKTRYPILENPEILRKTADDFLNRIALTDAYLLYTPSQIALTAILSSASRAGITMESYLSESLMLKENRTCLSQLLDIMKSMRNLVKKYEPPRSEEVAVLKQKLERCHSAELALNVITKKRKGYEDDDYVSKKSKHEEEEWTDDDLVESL
Sequence (P51948 whole entry partner): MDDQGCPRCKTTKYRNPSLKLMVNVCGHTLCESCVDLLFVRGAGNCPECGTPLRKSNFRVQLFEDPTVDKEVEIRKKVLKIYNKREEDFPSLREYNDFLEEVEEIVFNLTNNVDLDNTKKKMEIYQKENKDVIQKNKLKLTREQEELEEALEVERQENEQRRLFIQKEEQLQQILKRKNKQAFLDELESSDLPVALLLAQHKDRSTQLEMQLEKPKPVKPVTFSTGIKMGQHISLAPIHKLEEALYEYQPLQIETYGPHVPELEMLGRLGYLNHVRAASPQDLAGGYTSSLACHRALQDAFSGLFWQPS
Assay: In vitro CDK7 assay, potency of irreversible covalent inhibitors (kinact/KI)
Conditions: read-out: CDK7 (20 nM enz.) (kinact/ KI, M^−1*s^−1), 20 nM enz.
Parameter measured: kinact/KI (M⁻¹ s⁻¹)
Numbers only, in M⁻¹ s⁻¹.

Below, each entry is followed by its recorded kinact/KI result.
>>> df
                               smiles_entry  parameter_measured  measured
0  C=CC(=O)N1CC[C@@H](N2CC(c3cc(C)c4c(c3)Nc3ncnc(N5CCOCC5)c3CO4)C2)C1           kinact/KI      93.7
1  C=CC(=O)N1CC(N2CCC(c3cc(F)c4c(c3)Nc3ncnc(N5CCOCC5)c3CO4)CC2)C1           kinact/KI       699
2  C=CC(=O)N1CC(N2CCC(c3cc(C#N)c4c(c3)Nc3ncnc(-c5cnn(C)c5)c3CO4)CC2)C1           kinact/KI       412
3  C=CC(=O)N1CC(N2CCC(c3cc(C)c4c(c3)Nc3ncnc(-c5cn(C)nc5C)c3CO4)CC2)C1           kinact/KI       156
4  C=CC(=O)N1CCC(N2CC(c3cc(C)c4c(c3)Nc3ncnc(N5CCOCC5)c3CO4)C2)CC1           kinact/KI       189
5  C#Cc1cc(C2CCN(C3CN(C(=O)C#CC)C3)CC2)cc2c1O[C@H](C)c1c(ncnc1N1CCS(=O)(=O)CC1)N2           kinact/KI       103

Consider the record given below.
For the compound C=CC(=O)N1CCC(N2CC(c3cc4c(c(C)n3)OCc3c(ncnc3N3CCS(=O)(=O)CC3)N4)C2)CC1 , what kinact/KI is on record? 186
